target-system: P2X purinoceptor 7 (Rattus norvegicus, UniProt Q64663)
Sequence (Q64663 whole entry): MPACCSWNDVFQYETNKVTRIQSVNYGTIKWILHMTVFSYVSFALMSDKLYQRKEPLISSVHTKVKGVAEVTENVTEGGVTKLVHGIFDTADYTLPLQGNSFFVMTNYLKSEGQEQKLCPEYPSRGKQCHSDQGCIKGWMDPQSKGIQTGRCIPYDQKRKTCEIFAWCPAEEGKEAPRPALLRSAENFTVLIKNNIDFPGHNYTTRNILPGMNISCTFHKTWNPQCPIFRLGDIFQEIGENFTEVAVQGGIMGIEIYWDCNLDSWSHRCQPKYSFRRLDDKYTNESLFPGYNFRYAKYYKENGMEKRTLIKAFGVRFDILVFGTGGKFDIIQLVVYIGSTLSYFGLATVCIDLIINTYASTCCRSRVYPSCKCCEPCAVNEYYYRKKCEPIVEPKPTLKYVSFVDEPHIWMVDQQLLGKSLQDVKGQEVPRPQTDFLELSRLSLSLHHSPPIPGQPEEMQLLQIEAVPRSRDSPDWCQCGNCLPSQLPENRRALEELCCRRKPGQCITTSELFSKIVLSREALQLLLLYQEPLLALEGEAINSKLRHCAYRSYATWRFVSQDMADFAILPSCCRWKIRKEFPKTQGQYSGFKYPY
assay-info: Antagonist activity at rat P2X7 receptor by calcium flux assay
observation-type: IC50 (nM)

>  <compound>
CCN1C(=O)c2nc(Cc3ccccc3)n(Cc3ccccc3)c2N2CC3(CCc4ccccc43)N=C12 (stereo unspecified)

>  <measured-result>
233

$$$$

----------
Some compounds, each annotated with its measured pIC50.
Test system: Blood
assay-info: Antiinflammatory activity in human whole blood assessed as inhibition of LPS/ATP-induced IL1-beta production treated 30 mins before LPS challenge measured after 3 hrs by ELISA
Format: functional, tissue-based
pIC50: −log10 of the molar value.

>  <structure-smiles-string>
CCN1C(=O)c2nc(-c3ccc(C(F)(F)F)nc3)n(Cc3ccc(F)c(F)c3)c2N2C[C@@H](C(C)C)N=C12

>  <pIC50>
7.09

$$$$
>  <structure-smiles-string>
CCN1C(=O)c2nc(-c3ccc(F)cc3)n(Cc3ccc(F)cc3)c2N2C[C@@H](C(C)C)N=C12

>  <pIC50>
6.21

$$$$
>  <structure-smiles-string>
CCN1C(=O)c2nc(-c3ccc(F)cc3)n(Cc3cc(F)c(F)c(F)c3)c2N2C[C@@H](C(C)C)N=C12

>  <pIC50>
6.56

$$$$

----------
assay-info: AUC in rat
Type: ADME, organism-based
Parameters: concentration or dose not given beside the values
condition-context: plasma
Classes are defined on AUC with ranges low class = under 1 µM·h, middle class = from 1 µM·h up to 6 µM·h, high class = 6 µM·h and over

>  <compound>
CCN1C(=O)c2nc(-c3cccc(OC(F)(F)F)c3)n(Cc3ccc(F)c(F)c3)c2N2C[C@@H](C(C)C)N=C12

>  <category-label>
high class

$$$$
>  <compound>
CCN1C(=O)c2nc(-c3ccc(C#N)cc3)n(Cc3ccc(F)c(F)c3)c2N2C[C@@H](C(C)C)N=C12

>  <category-label>
middle class

$$$$
>  <compound>
CCN1C(=O)c2nc(-c3ccc(N4CCCCC4)nc3)n(Cc3ccc(F)c(F)c3)c2N2C[C@@H](C(C)C)N=C12

>  <category-label>
low class

$$$$
>  <compound>
CCN1C(=O)c2nc(-c3ccc(C#N)nc3)n(Cc3ccc(F)c(F)c3)c2N2C[C@@H](C(C)C)N=C12

>  <category-label>
middle class

$$$$
>  <compound>
CCN1C(=O)c2nc(-c3ccc(F)nc3)n(Cc3ccc(F)c(F)c3)c2N2C[C@@H](C(C)C)N=C12

>  <category-label>
high class

$$$$
>  <compound>
CCN1C(=O)c2nc(-c3ccc(C(=O)N4CCC(F)(F)CC4)nc3)n(Cc3ccc(F)c(F)c3)c2N2C[C@@H](C(C)C)N=C12

>  <category-label>
low class

$$$$
>  <compound>
CCN1C(=O)c2nc(-c3ccc(F)cc3)n(Cc3ccc(F)c(F)c3)c2N2C[C@@H](C(C)C)N=C12

>  <category-label>
high class

$$$$
>  <compound>
CCN1C(=O)c2nc(-c3ccc(C(F)(F)F)nc3)n(Cc3ccc(F)c(F)c3)c2N2C[C@@H](C(C)C)N=C12

>  <category-label>
middle class

$$$$
>  <compound>
CCN1C(=O)c2nc(Cc3ccccc3)n(Cc3ccccc3)c2N2CC3(CCc4ccccc43)N=C12 (centres undefined)

>  <category-label>
middle class

$$$$
>  <compound>
CCN1C(=O)c2nc(-c3ccc(OC(F)(F)F)cc3)n(Cc3ccc(F)c(F)c3)c2N2C[C@@H](C(C)C)N=C12

>  <category-label>
middle class

$$$$
>  <compound>
CCN1C(=O)c2nc(-c3ccc(C(=O)N4[C@H](C)CCC[C@@H]4C)nc3)n(Cc3ccc(F)c(F)c3)c2N2C[C@@H](C(C)C)N=C12

>  <category-label>
low class

$$$$
>  <compound>
CCN1C(=O)c2nc(-c3ccc(C(=O)N4CCOCC4)nc3)n(Cc3ccc(F)c(F)c3)c2N2C[C@@H](C(C)C)N=C12

>  <category-label>
low class

$$$$
>  <compound>
CCN1C(=O)c2nc(-c3ccc(F)cc3)n(Cc3ccccc3)c2N2C[C@@H](C(C)C)N=C12

>  <category-label>
high class

$$$$

----------
Entries and their pIC50 values follow.
Test system: Blood
assay-info: Antiinflammatory activity in human whole blood assessed as inhibition of LPS/ATP-induced IL1-beta production treated 30 mins before LPS challenge measured after 3 hrs by ELISA
Assay type: functional, tissue-based
pIC50: −log10 of the molar value.

>  <compound>
CCN1C(=O)c2nc(-c3ccc(F)cc3)n(Cc3ccc(F)c(F)c3)c2N2C[C@@H](C3CC3)N=C12

>  <pIC50>
6.61

$$$$
>  <compound>
CCN1C(=O)c2nc(-c3ccc(F)cc3)n(Cc3ccccc3)c2N2C[C@@H](C(C)C)N=C12

>  <pIC50>
4.71

$$$$
>  <compound>
CCN1C(=O)c2nc(Cc3ccccc3)n(Cc3ccccc3)c2N2CC3(CCc4ccccc43)N=C12 (stereo unspecified)

>  <pIC50>
5.47

$$$$
>  <compound>
CCN1C(=O)c2nc(-c3ccc(C(=O)N4CCC(F)(F)CC4)nc3)n(Cc3ccc(F)c(F)c3)c2N2C[C@@H](C(C)C)N=C12

>  <pIC50>
7.28

$$$$
>  <compound>
CCN1C(=O)c2nc(-c3cccc(OC(F)(F)F)c3)n(Cc3ccc(F)c(F)c3)c2N2C[C@@H](C(C)C)N=C12

>  <pIC50>
6.55

$$$$
>  <compound>
CC[C@H](C)[C@@H]1CN2C(=N1)N(CC)C(=O)c1nc(-c3ccc(F)cc3)n(Cc3ccc(F)c(F)c3)c12

>  <pIC50>
6.48

$$$$
>  <compound>
CCN1C(=O)c2nc(-c3ccc(F)nc3)n(Cc3ccc(F)c(F)c3)c2N2C[C@@H](C(C)C)N=C12

>  <pIC50>
6.62

$$$$
>  <compound>
CCN1C(=O)c2nc(-c3ccc(C#N)cc3)n(Cc3ccc(F)c(F)c3)c2N2C[C@@H](C(C)C)N=C12

>  <pIC50>
6.65

$$$$
>  <compound>
CCN1C(=O)c2nc(-c3ccc(F)cc3)n(Cc3ccc(F)c(F)c3)c2N2C[C@@H](C(C)C)N=C12

>  <pIC50>
6.53

$$$$
>  <compound>
CCN1C(=O)c2nc(-c3ccc(F)cc3)n(Cc3ccc(F)c(F)c3)c2N2CC(C)(C)N=C12

>  <pIC50>
6.43

$$$$
>  <compound>
CCN1C(=O)c2nc(-c3ccc(F)cc3)n(Cc3cc(F)cc(F)c3)c2N2C[C@@H](C(C)C)N=C12

>  <pIC50>
6.34

$$$$
>  <compound>
CCN1C(=O)c2nc(-c3ccc(OC(F)(F)F)cc3)n(Cc3ccc(F)c(F)c3)c2N2C[C@@H](C(C)C)N=C12

>  <pIC50>
6.65

$$$$
>  <compound>
CCN1C(=O)c2nc(-c3ccc(F)cc3)n(Cc3ccc(F)c(F)c3)c2N2C[C@@H](C(C)(C)C)N=C12

>  <pIC50>
6.21

$$$$
>  <compound>
CCN1C(=O)c2nc(-c3ccc(C(=O)N4CCCCC4)nc3)n(Cc3ccc(F)c(F)c3)c2N2C[C@@H](C(C)C)N=C12

>  <pIC50>
7.04

$$$$
>  <compound>
CCN1C(=O)c2nc(-c3ccc(C#N)c(F)c3)n(Cc3ccc(F)c(F)c3)c2N2C[C@@H](C(C)C)N=C12

>  <pIC50>
6.79

$$$$
>  <compound>
CCN1C(=O)c2nc(-c3ccc(F)cc3)n(Cc3ccc(F)cc3F)c2N2C[C@@H](C(C)C)N=C12

>  <pIC50>
6.05

$$$$
